experimental_target: T1, human LAP-TGFB1 Fc fusion (human)
T1 construct: also called human LAP-TGFβ1-Fc; human LAP-TGFβ-Fc isoform 1
T1 sequence (chain, as listed by the source limits assumed): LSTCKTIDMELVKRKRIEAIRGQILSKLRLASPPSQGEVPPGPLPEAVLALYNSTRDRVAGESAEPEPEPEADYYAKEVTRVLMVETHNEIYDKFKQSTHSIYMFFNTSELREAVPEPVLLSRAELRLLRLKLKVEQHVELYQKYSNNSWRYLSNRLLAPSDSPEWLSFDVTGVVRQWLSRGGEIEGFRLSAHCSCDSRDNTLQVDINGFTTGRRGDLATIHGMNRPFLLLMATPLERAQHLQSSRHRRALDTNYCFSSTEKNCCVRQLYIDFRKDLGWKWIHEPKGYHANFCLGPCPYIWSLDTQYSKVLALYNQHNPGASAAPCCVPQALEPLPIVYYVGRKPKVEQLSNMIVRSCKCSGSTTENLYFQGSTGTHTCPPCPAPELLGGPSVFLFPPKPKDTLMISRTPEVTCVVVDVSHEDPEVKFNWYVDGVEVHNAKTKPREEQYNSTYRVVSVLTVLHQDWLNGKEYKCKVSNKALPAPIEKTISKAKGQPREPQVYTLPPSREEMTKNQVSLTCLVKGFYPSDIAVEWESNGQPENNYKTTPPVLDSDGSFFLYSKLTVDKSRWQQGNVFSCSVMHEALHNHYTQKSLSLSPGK
method_description: BLI off-rate screen
measurement_kind: Fold change (fold)
Write the value in fold as a bare number.

- binder: "VH G102S (29BIT) (Fab, V domains shown, Light chain: parental 20E6 LC, implied) VH: EVQLVQSGAEVKKPGASVKVSCKASGYTFTSYWMHWVRQAPGQGLEWMGRIDPQSGGIKYAQKFQGRATLTVDTSTSTAYMELSRLRSDDTAVYYCARWDYSGYFDVWGQGTLVTVSS VL: DIQMTQSPSSLSASVGDRVTITCRASQDITNYLNWYQQKPGKAVKLLIYYTSRLHSGVPSRFSGSGSGTDYTLTISSLQPEDFATYFCQQGDTLPWTFGQGTKLEIKR"
  Fold change (fold): 0.5

Then there is this binder:
Data request: Can you look up the measured Fold change of VL L94Q (33BIT) (Fab, V domains shown, Heavy chain: parental 20E6 Fab HC, implied) VH: EVQLVQSGAEVKKPGASVKVSCKASGYTFTSYWMHWVRQAPGQGLEWMGRIDPQSGGIKYAQKFQGRATLTVDTSTSTAYMELSRLRSDDTAVYYCARWDYGGYFDVWGQGTLVTVSS VL: DIQMTQSPSSLSASVGDRVTITCRASQDITNYLNWYQQKPGKAVKLLIYYTSRLHSGVPSRFSGSGSGTDYTLTISSLQPEDFATYFCQQGDTQPWTFGQGTKLEIKR for me?
Data returned: 0.7

Data credit: patent US20230272056A1
